Molecular target: UniProt:P42336
Experiment: Inhibition of PI3Kα (ADP-Glo kinase activity assay, ATP to ADP conversion)
Type: biochemical
Settings: 25 μM PIP2:PS, 60 μM ATP, 30 min reaction, luminescence
Description: Quantification of ATP to ADP conversion as a measure of PI3Kα activity. […] The conversion of ATP to ADP by PI3Kα was measured as luminescence signal via Promega ADP-Glo kinase activity assay. […] Compounds were prepared at 100× final concentration as a 12-point, 1:3 serial-dilution in DMSO series, with DMSO control as 12th point. […] ATP to ADP conversion was measured in Luminescence Counts on DTX880 Plate Reader (Beckman Coulter). […]
Could you mark each record met if its PI3Ka IC50 falls strictly under 300 nM, and not met if it equals or exceeds it?

Study these solved cases before continuing.
1. Nc1ncc(-c2cc(N3CCOCC3)cc(S(=O)(=O)CC3CCC(F)(F)CC3)c2)cn1
not met
2. CCNC(=O)N1CC(S(=O)(=O)c2cc(-c3cnc(N)nc3)cc(N3CCOCC3)c2)C1
met
3. Nc1ncc(-c2cc(S(=O)(=O)C3COc4ccccc43)cc(N3CCOCC3)n2)cn1 (centres unmarked)
met
4. Nc1ncc(-c2cc(N3CCOCC3)cc(S(=O)(=O)Cc3ccc4[nH]ccc4c3)c2)cn1
met
5. Nc1ncc(-c2cc(Oc3ccccc3Cl)cc(N3CCOCC3)n2)cn1
met

API: query returns whether the compound falls strictly under 300 nM in PI3Ka IC50. Query: "Nc1ncc(-c2cc(N3CCOCC3)cc(S(=O)(=O)c3coc4ccccc34)c2)cn1" not met

API: query returns whether the compound falls strictly under 300 nM in PI3Ka IC50. Query: "Nc1ncc(-c2cc(N3CCOCC3)cc(S(=O)(=O)c3ccc4c(c3)OCC4)c2)cn1" not met

API: query returns whether the compound falls strictly under 300 nM in PI3Ka IC50. Query: "O=S(=O)(c1ccccc1)c1cc(-c2cnc(NC3CC3)nc2)nc(N2CCOCC2)c1" not met

----------
Biological target: PI3Kα (Homo sapiens (Human), UniProt P42336)
Sequence (P42336 whole entry): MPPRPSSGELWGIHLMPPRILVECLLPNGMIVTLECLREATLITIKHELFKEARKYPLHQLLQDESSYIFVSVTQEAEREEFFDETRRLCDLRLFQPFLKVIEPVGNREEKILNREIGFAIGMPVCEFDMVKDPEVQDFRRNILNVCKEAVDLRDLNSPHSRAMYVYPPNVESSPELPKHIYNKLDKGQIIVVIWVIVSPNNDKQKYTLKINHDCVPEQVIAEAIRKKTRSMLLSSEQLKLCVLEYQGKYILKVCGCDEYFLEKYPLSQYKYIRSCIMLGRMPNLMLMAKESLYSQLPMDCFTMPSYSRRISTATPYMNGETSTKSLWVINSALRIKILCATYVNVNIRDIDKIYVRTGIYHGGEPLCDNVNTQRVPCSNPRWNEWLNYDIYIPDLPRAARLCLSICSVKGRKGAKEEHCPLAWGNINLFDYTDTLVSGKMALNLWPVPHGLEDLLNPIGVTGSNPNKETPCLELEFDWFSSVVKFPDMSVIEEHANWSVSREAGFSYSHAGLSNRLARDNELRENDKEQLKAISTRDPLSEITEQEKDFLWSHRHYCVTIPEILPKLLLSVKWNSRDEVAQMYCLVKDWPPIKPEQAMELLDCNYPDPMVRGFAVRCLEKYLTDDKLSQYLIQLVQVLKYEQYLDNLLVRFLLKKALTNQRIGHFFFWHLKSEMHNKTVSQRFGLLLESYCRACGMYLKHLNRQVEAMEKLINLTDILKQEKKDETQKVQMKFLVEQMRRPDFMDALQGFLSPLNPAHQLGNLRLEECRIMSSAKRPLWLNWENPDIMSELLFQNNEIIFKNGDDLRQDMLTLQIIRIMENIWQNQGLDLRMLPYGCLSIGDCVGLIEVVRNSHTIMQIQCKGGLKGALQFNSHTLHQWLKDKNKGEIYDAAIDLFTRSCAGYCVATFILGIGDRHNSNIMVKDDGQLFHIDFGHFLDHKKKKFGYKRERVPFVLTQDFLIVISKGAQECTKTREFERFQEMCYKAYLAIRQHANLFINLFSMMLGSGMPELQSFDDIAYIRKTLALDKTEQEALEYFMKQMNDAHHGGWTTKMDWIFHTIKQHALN
Sequence (P27986 whole entry partner): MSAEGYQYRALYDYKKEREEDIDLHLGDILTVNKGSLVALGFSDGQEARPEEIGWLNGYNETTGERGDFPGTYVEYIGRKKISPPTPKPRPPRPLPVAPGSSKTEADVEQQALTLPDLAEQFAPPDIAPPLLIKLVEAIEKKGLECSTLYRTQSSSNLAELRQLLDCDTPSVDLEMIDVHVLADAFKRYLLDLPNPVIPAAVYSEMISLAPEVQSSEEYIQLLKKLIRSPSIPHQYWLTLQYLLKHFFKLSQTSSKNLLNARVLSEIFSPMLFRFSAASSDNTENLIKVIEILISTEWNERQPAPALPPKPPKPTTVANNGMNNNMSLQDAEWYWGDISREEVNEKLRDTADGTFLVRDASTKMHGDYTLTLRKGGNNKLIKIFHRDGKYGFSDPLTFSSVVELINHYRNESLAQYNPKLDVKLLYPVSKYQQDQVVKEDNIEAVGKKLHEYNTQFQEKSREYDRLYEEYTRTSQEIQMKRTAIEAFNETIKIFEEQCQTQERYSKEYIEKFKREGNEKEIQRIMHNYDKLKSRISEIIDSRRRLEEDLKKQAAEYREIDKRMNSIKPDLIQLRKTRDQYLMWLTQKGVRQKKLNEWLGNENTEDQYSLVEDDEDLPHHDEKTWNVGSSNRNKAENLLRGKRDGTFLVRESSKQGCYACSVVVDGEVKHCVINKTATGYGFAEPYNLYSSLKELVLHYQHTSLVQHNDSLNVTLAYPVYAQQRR
Experiment: Inhibition of PI3Kα (ADP-Glo kinase activity assay, ATP to ADP conversion)
Format: biochemical
Conditions: 25 μM PIP2:PS, 60 μM ATP, 30 min reaction, luminescence
measure: PI3Ka IC50
Quote the value and follow it with the unit of measurement.

These recorded examples may help you get a feel for the data.
1) COc1ccccc1Oc1cc(-c2cnc(N)nc2)nc(N2CCOCC2)c1 [Compound 135]
79 nM
2) CC(C)N1CCC(S(=O)(=O)c2cc(-c3cnc(N)nc3)cc(N3CCOCC3)c2)C1.Cl (centres unmarked) [Compound 89]
2500 nM
3) Nc1ncc(-c2cc(OC3CN(C(=O)C4CC4)C3)cc(N3CCOCC3)n2)cn1 [Compound 129]
34 nM
4) C=C(c1ccccc1)c1cc(-c2cnc(N)nc2)nc(N2CCOCC2)c1 [Compound 126]
270 nM

Please examine the following record next.
Observed PI3Ka IC50 on PI3Kα (Homo sapiens (Human), UniProt P42336) for Nc1cnc(-c2cc(N3CCOCC3)cc(S(=O)(=O)Cc3ccccc3)c2)cn1 [Compound 73] , please. 1500 nM
